src = patent US7638515B2

# measured.on: glucocorticoid receptor (GR) (Homo sapiens)
# Sequence (P04150 1-777): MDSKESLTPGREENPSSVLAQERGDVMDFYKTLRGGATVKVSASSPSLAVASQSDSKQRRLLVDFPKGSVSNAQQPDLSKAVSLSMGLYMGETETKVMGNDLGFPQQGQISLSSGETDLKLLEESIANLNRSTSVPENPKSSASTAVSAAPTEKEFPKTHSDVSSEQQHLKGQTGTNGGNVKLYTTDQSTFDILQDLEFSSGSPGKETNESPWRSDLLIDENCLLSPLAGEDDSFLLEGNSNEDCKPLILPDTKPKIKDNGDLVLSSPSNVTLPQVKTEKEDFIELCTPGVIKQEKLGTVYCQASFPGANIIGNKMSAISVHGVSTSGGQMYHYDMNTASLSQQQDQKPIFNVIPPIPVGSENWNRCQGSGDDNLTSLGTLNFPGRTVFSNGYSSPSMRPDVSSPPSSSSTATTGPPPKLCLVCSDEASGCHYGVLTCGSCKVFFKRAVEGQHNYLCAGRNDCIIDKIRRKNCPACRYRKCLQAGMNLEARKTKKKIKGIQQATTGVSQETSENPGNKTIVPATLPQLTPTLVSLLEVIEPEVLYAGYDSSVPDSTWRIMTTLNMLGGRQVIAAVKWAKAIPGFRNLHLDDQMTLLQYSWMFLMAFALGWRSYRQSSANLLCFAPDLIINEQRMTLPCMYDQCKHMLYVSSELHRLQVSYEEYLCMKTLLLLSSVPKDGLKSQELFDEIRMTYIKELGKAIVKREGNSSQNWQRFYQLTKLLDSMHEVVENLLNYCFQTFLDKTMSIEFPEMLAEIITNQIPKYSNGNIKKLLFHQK
# run.description: Binding to the glucocorticoid receptor, recombinantly produced receptor, cytosol preparations of Sf9 cells
# condition.context: reference substance [3H]-dexamethasone
parameter.measured: IC50 (nM)
Give the value in nM but do not write nM after it.

**Q:** GET /values?readout=IC50&item= CC1(C)CC(O)(C(F)(F)F)C(Nc2cccc3[nH]ncc23)c2cc(F)cc(O)c21 (stereo not shown)
**A:** 95
